// reported GI50 at 21 h for each item listed
test: in vitro; details: human, hepatocytes
Description: Growth inhibition of human hepatocytes after 21 hrs by MTT assay

- moleculeSmiles: "CC(C)=CCc1c2c(c3occ(-c4ccc(O)cc4)c(=O)c3c1O)C=CC(C)(C)O2"
  boundSign: ">"
  GI50 at 21 h / µM: 500
- moleculeSmiles: "CC(C)=CCc1c2c(c3occ(-c4ccc(O)c(O)c4)c(=O)c3c1O)C=CC(C)(C)O2"
  boundSign: "="
  GI50 at 21 h / µM: 123

This collection of values is drawn from ChEMBL document CHEMBL1149689.
